Hey, just so you know, these numbers are from PubChem BioAssay AID1259422.

TEST_NAME: TEAD-YAP interaction inhibition, primary screen, TEAD-YAP interaction inhibitor project, luminescence, HEK-TIYL cells (AID 1259422)
CONDITIONS: TEAD-Gal4/YAP UAS-luciferase luminescence, at 9.12 µM
Out of some 640,000 compounds screened, about 9,300 (1.5%) were called active. Cut-off read from the data, not from the text of the source: active = inhibition above about 32%; inactive = the rest. Shown is part of a subset that was picked to be rich in actives.
Tick one outcome: true = active, false = inactive

How did this test come out for O=C(O)CCCCCN1C(=O)/C(=C/c2ccc3c(c2)OCO3)SC1=S ?
true

How did this test come out for CCCCCCCN1C(=O)c2c(Cl)c(Cl)c(Cl)c(Cl)c2C1=O ?
false

How did this test come out for CCN1C(=O)/C(=C/c2ccc(OCC(=O)O)cc2)SC1=S ?
false

How did this test come out for O=C(O)CCN1C(=O)/C(=C\c2ccc(C(=O)O)cc2)SC1=S ?
false

How did this test come out for NC(=O)Cn1c(=O)n(CCCCC(=O)NCc2ccccc2Cl)c(=O)c2ccccc21 ?
false

How did this test come out for CC(C)C(=O)N=C1N=C2C=CC(Cl)=CN2Cc2ccccc21 ?
false

* * *

TEST_NAME: TEAD-YAP interaction inhibition, primary screen, TEAD-YAP interaction inhibitor project, luminescence, HEK-TIYL cells (AID 1259422)
CONDITIONS: TEAD-Gal4/YAP UAS-luciferase luminescence, at 9.12 µM
Out of some 640,000 compounds screened, about 9,300 (1.5%) were called active. Cut-off read from the data, not from the text of the source: active = inhibition above about 32%; inactive = the rest. What follows is part of a selection rich in actives, with near analogues and random picks from the rest.
Tick one outcome: True (active), False (inactive)

How did this test come out for CCCN1CCc2nc(NC(=O)COc3ccc(Cl)cc3Cl)sc2C1 ?
True

How did this test come out for Cn1c(/C(C#N)=C\c2ccc(-c3ccc(S(N)(=O)=O)cc3)o2)nc2ccccc21 ?
True

How did this test come out for CCCOc1ccc(/C(O)=C2/C(=O)C(=O)N(CCN3CCOCC3)C2c2ccc(F)cc2)cc1C (stereo not drawn) ?
False

How did this test come out for CCOc1ccc(-c2cc(C(=O)N/N=C/c3c[nH]c4ccccc34)[nH]n2)cc1 ?
True

How did this test come out for CCc1ccc(CC(=O)N2CC(=O)Nc3ccccc32)cc1 ?
True

How did this test come out for CCOc1ccc(-c2cc(C(=O)N/N=C\c3ccccc3O)[nH]n2)cc1OC ?
False

How did this test come out for Cc1ccc(C2=CC(c3ccccc3F)n3nnnc3N2)cc1 (stereo not drawn) ?
False

How did this test come out for O=C(Nc1nc2c(s1)CN(Cc1ccccc1)CC2)c1cc(Cl)ccc1Cl ?
False

How did this test come out for N/C(=N/OC(=O)c1ccccc1I)c1nonc1N ?
False

How did this test come out for COc1ccc(CNC(=O)CC(C)C)cc1 ?
False

How did this test come out for CCOc1ccc(O)c(/C=N/NC(=O)CNc2ccc3ccccc3c2)c1 ?
False

How did this test come out for CN1CCc2nc(NC(=O)c3ccc(Cl)cc3Cl)sc2C1 ?
False

How did this test come out for COc1ccc(-c2nnc(SCC(=O)N(C)C)n2C)cc1 ?
False

How did this test come out for N#C/C(=C\c1ccc(-c2ccc(S(N)(=O)=O)cc2)o1)C(N)=O ?
False

How did this test come out for O=C1CN(C(=O)CCl)c2ccccc2N1 ?
False

How did this test come out for CCCOc1ccc(/C=N/NC(=O)OC)c(O)c1 ?
False

How did this test come out for CCOc1ccc(-c2n[nH]c3c2C(c2ccccc2OC)NC3=O)cc1 (stereo not drawn) ?
False

How did this test come out for COc1ccccc1NC(=O)N1CCC2(CC1)OCc1cc(SC)cc(C)c1O2 ?
False

How did this test come out for COc1ccc(OCC(=O)Nc2nc3ccc(C)cc3s2)cc1 ?
False

How did this test come out for Cc1ccc(C2SCC(=O)N2c2ccc(C)cc2)cc1 (stereo not drawn) ?
True

How did this test come out for CC1CC(=O)Nc2ccccc2N1C(=O)Cc1ccc(Cl)cc1 (stereo not drawn) ?
False

How did this test come out for CC12C=CC3(O1)C(C(=O)N(CC1CCCO1)C3C(=O)NC1CCCCC1)C2C(=O)Nc1ccc(Cl)c(Cl)c1 (stereo not drawn) ?
False

How did this test come out for CCOc1cccc(-c2cc(C(=O)N/N=C/c3ccccc3O)[nH]n2)c1 ?
False
